Here the recorded T/C is given for each entry.
# Tested on: P388 leukemia ip, CD2F1 mice, survival T/C
# experimental_protocol: NCI In Vivo Anticancer Drug Screen. Data for tumor model P388 Leukemia (intraperitoneal) in CD2F1 (CDF1) mice
# particulars: endpoint: median survival time; dose: 50.0 mg/kg/injection; schedule: Q01DX005 (ip); vehicle: Klucel (hydroxypropylcellulose) (HPC); higher = longer survival
Inconclusive results and toxic doses are left out.

## Task GET /values?readout=T/C&item= COc1ccc(OC)c2c1CCC1(C2)NC(=O)NC1=O (stereo unspecified)
## Result 111 % of control

## Task Next: CCOC(=O)\C(C#N)=C/C(C)=C/C(C)=C/Nc1ccc([N+](=O)[O-])cc1[N+](=O)[O-]
## Result 111 % of control

## Task Next: CN(C)CC(=O)Nc1ccc2c(c1)C(=O)c1ccc(NC(=O)CN(C)C)cc1C2=O
## Result 101 % of control

## Task Next: CCOC(=O)C(Cc1cc2c(n1C)CCCC2)(NC(C)=O)C(=O)OCC
## Result 96 % of control

Further cases:
## Task GET /values?readout=T/C&item= O=C1C(=Cc2ccccc2O)C(=O)N(c2ccccc2)C(=S)N1c1ccccc1
## Result 100 % of control

## Task Next: O=C1c2ccccc2C=c2c1nc1c(O)ccc3cccc2c31
## Result 97 % of control

## Task Next: COC(=O)c1c(C)cc(OC)c(C/C=C(\C)CCCc2coc(C=C(C)C)c2)c1OC
## Result 97 % of control

## Task Next: CC1CN(C(=O)/C=C/C(=O)OC2CCCCC2)C(C)CN1C(=O)/C=C/C(=O)OC1CCCCC1 (stereo unspecified)
## Result 98 % of control

## Task Next: Cc1ccccc1-n1c(COc2c(C)cccc2C)n[nH]c1=S
## Result 93 % of control

## Task Next: CCCCCC1=CC2(F)C(=O)NC(=O)NC12 (stereo unspecified)
## Result 108 % of control

## Task Next: CC1(c2ccccn2)C(=O)c2ccccc2C1=O
## Result 98 % of control

----------
# System: P388 leukemia ip, CD2F1 mice, survival T/C
# experimental_protocol: NCI In Vivo Anticancer Drug Screen. Data for tumor model P388 Leukemia (intraperitoneal) in CD2F1 (CDF1) mice
# particulars: endpoint: median survival time; dose: 240.0 mg/kg/injection; schedule: Q01DX005 (ip); vehicle: saline; higher = longer survival
# Description: The antitumor activity of compounds was measured in mice bearing transplantable tumors. Survival or tumor size were measured and the results are expressed as the measurement made in the treated group (T) divided by the measurement made in the vehicle treated control group (C). The tumor model used in this assay is P388 Leukemia (intraperitoneal) in CD2F1 (CDF1) mice
Toxic doses and inconclusive results are not listed.
measured_parameter: T/C

Examples with their reported T/C follow.
## Task Identify the measured T/C of CC(=O)Nc1c(C)ncn(-c2ccccc2)c1=O for P388 leukemia ip, CD2F1 mice, survival T/C.
## Result 101 % of control

## Task Next: C[C@@H]1C[C@H](C)OC(CO)O1 (stereo not given in full) (tested in a mixture with another compound)
## Result 97 % of control

Further cases:
## Task Identify the measured T/C of CS(=O)(=O)C(c1nc2n(c1O)C(=N)N=N2)c1nc2n(c1O)C(=N)N=N2 (stereo not given) for P388 leukemia ip, CD2F1 mice, survival T/C.
## Result 105 % of control

## Task Next: C=C1C2(OS(=O)(=O)C(F)(F)F)CCC(C2)C1(C)C (stereo not given)
## Result 100 % of control

## Task Next: COc1cccc2c(=O)c(COC(C)=O)c(C)[nH]c12
## Result 112 % of control
